Target: PhhR (Cupriavidus necator)
Construct: native full-length gene, divergent to phhA (H16_RS18365); reporter plasmid pEH137 (plasmid assigned by list order)
Sequence (Q0K5I4 1-234): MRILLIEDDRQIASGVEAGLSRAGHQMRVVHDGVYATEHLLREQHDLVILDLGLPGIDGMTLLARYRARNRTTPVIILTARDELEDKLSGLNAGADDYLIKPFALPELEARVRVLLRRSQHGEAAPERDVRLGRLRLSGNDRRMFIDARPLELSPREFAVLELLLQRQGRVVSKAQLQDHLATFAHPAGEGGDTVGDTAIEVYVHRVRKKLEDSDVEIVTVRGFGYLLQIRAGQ
Experiment: RFP reporter dose-response in C. necator H16, Hill fit
Details: read-out: Km^b
OUTCOME MEASURE: pEC50
Interpret pEC50 as the negative base-10 log of the concentration measured in mol/L.

Record request: pEC50 value, item N[C@@H](Cc1ccccc1)C(=O)O [compound 11, L-phenylalanine]
4.77

----------
Biological target: PcaQ (Cupriavidus necator)
Construct: native full-length gene, divergent to operon starting at H16_RS30145; reporter plasmid pEH161 (plasmid assigned by list order)
Sequence (Q0JYV0 1-317): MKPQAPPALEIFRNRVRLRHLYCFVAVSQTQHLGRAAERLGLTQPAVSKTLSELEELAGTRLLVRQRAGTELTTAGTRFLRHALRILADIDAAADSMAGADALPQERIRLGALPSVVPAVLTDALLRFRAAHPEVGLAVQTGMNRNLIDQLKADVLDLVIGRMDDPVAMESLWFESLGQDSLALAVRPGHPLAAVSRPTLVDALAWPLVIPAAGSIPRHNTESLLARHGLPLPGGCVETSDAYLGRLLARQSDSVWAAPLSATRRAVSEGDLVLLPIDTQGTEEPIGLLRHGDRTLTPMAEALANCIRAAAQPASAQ
Assay: RFP reporter dose-response in C. necator H16, Hill fit
Conditions: read-out: Km^b
OUTCOME MEASURE: pEC50
Friendly reminder that pEC50 comes from taking -log10 of the concentration in mol/L.

Record request: pEC50 value, item O=C(O)c1ccc(O)c(O)c1 [compound 16, 3,4-Dihydroxybenzoate]
5.06

----------
Target: UniProt Q0KDY4
Sequence (Q0KDY4 1-364): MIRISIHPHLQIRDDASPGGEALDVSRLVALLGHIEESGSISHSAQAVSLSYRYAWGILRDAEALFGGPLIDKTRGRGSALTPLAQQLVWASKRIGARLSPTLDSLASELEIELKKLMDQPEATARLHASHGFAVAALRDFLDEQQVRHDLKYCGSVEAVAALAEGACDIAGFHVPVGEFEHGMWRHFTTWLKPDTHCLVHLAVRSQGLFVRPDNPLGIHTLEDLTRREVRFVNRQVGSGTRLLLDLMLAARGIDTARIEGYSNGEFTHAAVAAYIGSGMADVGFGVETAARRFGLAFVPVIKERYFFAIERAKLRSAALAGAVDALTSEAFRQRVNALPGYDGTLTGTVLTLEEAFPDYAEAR
Experiment: cell-based
From the text: RFP reporter dose-response in C. necator H16, Hill fit on FdsR
Structures can show the parent of a compound that is named as a salt.
OUTCOME MEASURE: pEC50
Bear in mind: pEC50 is minus log10 of a mol/L concentration; give just that figure.

Consider the compound shown here: O=CO [compound 2, Formate] What is its recorded pEC50?
3.89
